Source of measurements: ChEMBL document CHEMBL1201862

tested on: UACC-62; assay: NCI tumour cell line growth inhibition, 48 h
Calls of active or inactive are those of the source. No stated cut-off is given here; in the data, active = GI50 up to about 1.1 µM and inactive = higher.
Outcome field: choose from true for active, false for inactive

COMPOUND: O=[N+]([O-])c1ccccc1S(=O)(=O)c1cccc2c1NCCC2
GROUP_LABEL: false

What outcome does the record of this test show for "Cn1c(NC(=O)NC23CC4CC(CC(C4)C2)C3)nc2ccccc21" ?
false

Returns: the outcome recorded for CC(=O)OC1CC2(C)C(=CC1C1SCCS1)CCC1C2CCC2(C)C(OC(C)=O)CCC12 (configuration not stated) in this assay.
false

###

test system: Malme-3M; test: NCI tumour cell line growth inhibition, 48 h
Activity calls are given as the source filed them. No stated cut-off is given here; in the data, active = GI50 up to about 1.1 µM and inactive = higher.
Select the correct class. Options are yes (active), no (inactive) and nothing else.

COMPOUND: CCCCCCCCCCCCCCCCCCNC(=O)C(N)Cc1ccc(OCc2ccccc2)cn1 (stereo not drawn)
EXPERIMENTAL_TARGET: Malme-3M
GROUP_LABEL: no

Let us examine a further case.
Any idea what this test logged for "O=C(c1ccc(Cl)cc1)c1ccc(OCCCOc2ccc(C(=O)c3ccc(Cl)cc3)cc2)cc1" ?
no

###

test system: UO-31; assay: NCI tumour cell line growth inhibition, 48 h
Activity calls are given as the source filed them. Cut-off read from the data, not from the text of the source: active = GI50 up to about 1.1 µM and inactive = higher.
Classes to choose from: active, inactive

Solved entries:
COMPOUND: COC(=O)C(CCC#N)(CCC#N)C(=O)OC
GROUP_LABEL: inactive

COMPOUND: CC1OC(OC2C(O[C@H]3CC[C@@]4(C)C(=CC[C@H]5[C@@H]6C[C@@H]7O[C@]8(CC[C@@H](C)CO8)[C@@H](C)[C@@H]7[C@@]6(C)CC[C@@H]54)C3)OC(CO)C(O)C2O)C(O)C(O)C1O (stereo not given in full)
GROUP_LABEL: active

COMPOUND: COC1(OC)CCCc2c1no[n+]2[O-]
GROUP_LABEL: inactive

COMPOUND: COc1nc2cccc(C(O)c3ccccc3)c2nc1-c1ccccc1 (stereo not given)
GROUP_LABEL: inactive

COMPOUND: CO[P@]1(=O)O[C@@H](c2ccccc2)[C@H](O)[C@@]1(O)c1ccccc1
GROUP_LABEL: inactive

COMPOUND: CCOC(=O)NC(C(=O)OCC)C(F)(F)F (stereo not given)
GROUP_LABEL: inactive

COMPOUND: CO[C@H]1C[C@@H]2CC[C@@H](C)[C@@](O)(O2)C(=O)C(=O)N2CCCC[C@H]2C(=O)O[C@H]([C@H](C)C[C@@H]2CC[C@@H](OC(=O)C(C)(CO)CO)[C@H](OC)C2)CC(=O)[C@H](C)/C=C(\C)[C@@H](O)[C@@H](OC)C(=O)[C@H](C)C[C@H](C)/C=C/C=C/C=C/1C
GROUP_LABEL: active

COMPOUND: OCCCNc1ccnc2cc(Cl)ccc12
GROUP_LABEL: inactive

COMPOUND: Clc1ccc2c(c1)[nH]c1c2nc2ccccn21
GROUP_LABEL: inactive

COMPOUND: Cc1ccc(S(=O)(=O)N(CC(=O)O)c2ccccc2)cc1
GROUP_LABEL: inactive

Query compound follows.
Dear colleague, could you share the recorded outcome for COc1cc(C2SCC(=O)N2c2ccc(-c3ccc(-n4c(-c5ccccc5)nc5ccccc5c4=O)cc3)cc2)cc(OC)c1OC (stereo not given) when you have a moment?
inactive
